# target or test system: MloK1 (Mesorhizobium japonicum)
# Sequence (Q98GN8 whole entry): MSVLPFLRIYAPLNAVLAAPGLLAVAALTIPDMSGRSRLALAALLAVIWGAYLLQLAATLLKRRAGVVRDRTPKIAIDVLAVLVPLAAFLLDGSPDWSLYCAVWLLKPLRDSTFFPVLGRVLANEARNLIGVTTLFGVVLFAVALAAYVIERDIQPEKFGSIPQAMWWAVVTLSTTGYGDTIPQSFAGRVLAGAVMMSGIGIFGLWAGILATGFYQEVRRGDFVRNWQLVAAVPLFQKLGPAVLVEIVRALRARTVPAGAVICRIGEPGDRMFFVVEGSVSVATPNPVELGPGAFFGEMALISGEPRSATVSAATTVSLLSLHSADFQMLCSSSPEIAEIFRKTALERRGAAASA
# measurement description: […]+ uptake into MloK1-reconstituted liposomes, dose-response
readout: pEC50
Remember the convention: pEC50 equals -log10 of concentration in molar.

The compound listed as Nc1nc2c(ncn2[C@@H]2O[C@@H]3COP(=O)(O)O[C@H]3[C@H]2O)c(=O)[nH]1 shows pEC50 equal to 6.22
